Test: AUC in Wistar Han rat at 10 mg/kg, po by LC/MS method
Format: ADME, organism-based
Conditions: in vivo
quantity.measured: AUC (µM·h)

molecule	quantity.measured	observed.result
COC(=O)N[C@H](C(=O)N1CCC[C@H]1c1ncc(-c2cc(F)c3c(c2)O[C@@H](c2ccc(C4CC4)s2)n2c-3cc3cc(-c4cnc([C@@H]5CCCN5C(=O)[C@@H](NC(=O)OC)C5CCOC6(CC6)C5)[nH]4)ccc32)[nH]1)C(C)C (some centres undefined)	AUC	0.58
COC(=O)N[C@H](C(=O)N1CCC[C@H]1c1ncc(-c2cc(F)c3c(c2)O[C@@H](c2ccc(C(C)C)s2)n2c-3cc3cc(-c4cnc([C@@H]5CCCN5C(=O)[C@@H](NC(=O)OC)[C@@H]5CCOC(C)(C)C5)[nH]4)ccc32)[nH]1)C(C)C	AUC	0.8
CCc1ccc([C@@H]2Oc3cc(-c4cnc([C@@H]5CCCN5C(=O)[C@@H](NC(=O)OC)C(C)C)[nH]4)cc(F)c3-c3cc4cc(-c5cnc([C@@H]6CCCN6C(=O)[C@@H](NC(=O)OC)[C@@H]6CCOC(C)(C)C6)[nH]5)ccc4n32)s1	AUC	0.78

---

Assay: Half life in Wistar Han rat at 2 mg/kg, iv by LC/MS method
Assay type: ADME, organism-based
Conditions: in vivo
quantity.measured: half-life

compound	observed.result
COC(=O)N[C@H](C(=O)N1CCC[C@H]1c1ncc(-c2ccc3c(c2)cc2n3[C@H](c3ccc4c(c3)OCCN4C)Oc3cc(-c4cnc([C@@H]5CCCN5C(=O)[C@@H](NC(=O)OC)C5CCOCC5)[nH]4)cc(F)c3-2)[nH]1)C(C)C	3.8 h
COC(=O)N[C@H](C(=O)N1CCC[C@H]1c1ncc(-c2cc(F)c3c(c2)O[C@@H](c2cc4c(s2)CCC4)n2c-3cc3cc(-c4cnc([C@@H]5CCCN5C(=O)[C@@H](NC(=O)OC)[C@@H]5CCOC(C)(C)C5)[nH]4)ccc32)[nH]1)C(C)C	4.3 h
COC(=O)N[C@H](C(=O)N1CCC[C@H]1c1ncc(-c2cc(F)c3c(c2)O[C@@H](c2ccc(C4CC4)s2)n2c-3cc3cc(-c4cnc([C@@H]5CCCN5C(=O)[C@@H](NC(=O)OC)C5CCOCC5)[nH]4)ccc32)[nH]1)C(C)C	4 h
COC(=O)N[C@H](C(=O)N1CCC[C@H]1c1ncc(-c2cc(F)c3c(c2)O[C@@H](c2ccc(C4CC4)s2)n2c-3cc3cc(-c4cnc([C@@H]5CCCN5C(=O)[C@@H](NC(=O)OC)C5C[C@@H](C)O[C@@H](C)C5)[nH]4)ccc32)[nH]1)C(C)C (some centres undefined)	5.1 h

---

Experiment: Oral bioavailability in Wistar Han rat at 10 mg/kg by LC/MS method
Type: ADME, organism-based
Settings: in vivo
The entries below come with measured bioavailability values attached.

compound	unit.descriptor	bioavailability
COC(=O)N[C@H](C(=O)N1CCC[C@H]1c1ncc(-c2cc(F)c3c(c2)O[C@@H](c2ccc(C4CC4)s2)n2c-3cc3cc(-c4cnc([C@@H]5CCCN5C(=O)[C@@H](NC(=O)OC)[C@@H]5CCOC(C)(C)C5)[nH]4)ccc32)[nH]1)C(C)C	%	6.6
COC(=O)N[C@H](C(=O)N1CCC[C@H]1c1ncc(-c2cc(F)c3c(c2)O[C@@H](c2ccc(C4CC4)s2)n2c-3cc3cc(-c4cnc([C@@H]5CCCN5C(=O)[C@@H](NC(=O)OC)C5CCOCC5)[nH]4)ccc32)[nH]1)C(C)C	%	3.1
CCCc1ncc([C@@H]2Oc3cc(-c4cnc([C@@H]5CCCN5C(=O)[C@@H](NC(=O)OC)C(C)C)[nH]4)cc(F)c3-c3cc4cc(-c5cnc([C@@H]6CCCN6C(=O)[C@@H](NC(=O)OC)[C@@H]6CCOC(C)(C)C6)[nH]5)ccc4n32)s1	%	1
COC(=O)N[C@H](C(=O)N1CCC[C@H]1c1ncc(-c2cc(F)c3c(c2)O[C@@H](c2ccc(C4CC4)s2)n2c-3cc3cc(-c4cnc([C@@H]5CCCN5C(=O)[C@@H](NC(=O)OC)C5C[C@@H](C)O[C@H](C)C5)[nH]4)ccc32)[nH]1)C(C)C (some centres not stated)	%	6.3
COC(=O)N[C@H](C(=O)N1CCC[C@H]1c1ncc(-c2cc(F)c3c(c2)O[C@@H](c2ccc(C4CC4)s2)n2c-3cc3cc(-c4cnc([C@@H]5CCCN5C(=O)[C@@H](NC(=O)OC)C5CC6CCC(C5)O6)[nH]4)ccc32)[nH]1)C(C)C (some centres not stated)	%	2.5
COC(=O)N[C@H](C(=O)N1CCC[C@H]1c1ncc(-c2cc(F)c3c(c2)O[C@@H](c2ccc(C4CC4)s2)n2c-3cc3cc(-c4cnc([C@@H]5CCCN5C(=O)[C@@H](NC(=O)OC)C5C[C@@H](C)O[C@@H](C)C5)[nH]4)ccc32)[nH]1)C(C)C (some centres not stated)	%	5.9
COC(=O)N[C@H](C(=O)N1CCC[C@H]1c1ncc(-c2cc(F)c3c(c2)O[C@@H](c2ccc4c(c2)OCCC4)n2c-3cc3cc(-c4cnc([C@@H]5CCCN5C(=O)[C@@H](NC(=O)OC)C5CCOCC5)[nH]4)ccc32)[nH]1)C(C)C	%	0.8
COC(=O)N[C@H](C(=O)N1CCC[C@H]1c1ncc(-c2cc(F)c3c(c2)O[C@@H](c2ccc(C4CC4)s2)n2c-3cc3cc(-c4cnc([C@@H]5CCCN5C(=O)[C@@H](NC(=O)OC)C5CCO[C@H](C)C5)[nH]4)ccc32)[nH]1)C(C)C (some centres not stated)	%	1.4
COC(=O)N[C@H](C(=O)N1CCC[C@H]1c1ncc(-c2cc(F)c3c(c2)O[C@@H](c2ccc(C4CC4)s2)n2c-3cc3cc(-c4cnc([C@@H]5CCCN5C(=O)[C@@H](NC(=O)OC)C5CCO[C@@H](C)C5)[nH]4)ccc32)[nH]1)C(C)C (some centres not stated)	%	1.3
COC(=O)N[C@H](C(=O)N1CCC[C@H]1c1ncc(-c2ccc3c(c2)cc2n3[C@H](c3ccc4c(c3)OCCC4)Oc3cc(-c4cnc([C@@H]5CCCN5C(=O)[C@@H](NC(=O)OC)C5CCOCC5)[nH]4)cc(F)c3-2)[nH]1)C(C)C	%	0.5
COC(=O)N[C@H](C(=O)N1CCC[C@H]1c1ncc(-c2cc(F)c3c(c2)O[C@@H](c2ccc(C(C)C)s2)n2c-3cc3cc(-c4cnc([C@@H]5CCCN5C(=O)[C@@H](NC(=O)OC)[C@@H]5CCOC(C)(C)C5)[nH]4)ccc32)[nH]1)C(C)C	%	2.7
COC(=O)N[C@H](C(=O)N1CCC[C@H]1c1ncc(-c2ccc3c(c2)cc2n3[C@H](c3ccc4c(c3)OCCN4C)Oc3cc(-c4cnc([C@@H]5CCCN5C(=O)[C@@H](NC(=O)OC)C5CCOCC5)[nH]4)cc(F)c3-2)[nH]1)C(C)C	%	0.8

---

Test system: Nonstructural protein 5A (Hepatitis C virus), Q5L478 [Y93H]
Sequence (Q5L478 entry or part of it Y93H): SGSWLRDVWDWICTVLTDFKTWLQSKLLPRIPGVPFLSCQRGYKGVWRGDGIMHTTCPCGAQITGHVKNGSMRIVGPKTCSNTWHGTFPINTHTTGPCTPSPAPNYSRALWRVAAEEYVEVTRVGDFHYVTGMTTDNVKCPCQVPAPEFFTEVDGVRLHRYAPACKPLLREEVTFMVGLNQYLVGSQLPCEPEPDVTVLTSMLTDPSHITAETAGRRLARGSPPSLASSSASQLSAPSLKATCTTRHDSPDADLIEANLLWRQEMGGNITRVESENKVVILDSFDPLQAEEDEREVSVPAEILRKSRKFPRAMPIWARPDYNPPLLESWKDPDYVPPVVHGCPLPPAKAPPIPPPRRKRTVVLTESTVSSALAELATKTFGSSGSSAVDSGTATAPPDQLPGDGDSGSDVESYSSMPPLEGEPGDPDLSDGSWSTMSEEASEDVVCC
Assay: Inhibition of NS5A Y93H mutant in HCV genotype 1a infected in HuH7 replicon cells assessed as decrease in viral replication after 3 days by RT-PCR method
Assay type: cell-based
Conditions: Hepatitis C virus subtype 1a
Class field: derived from EC90; ranges one (below 20 pM), two (20 pM to below 30 pM), three (30 pM or more)

compound	answer.label
COC(=O)N[C@H](C(=O)N1CCC[C@H]1c1ncc(-c2cc(F)c3c(c2)O[C@@H](c2ccc4c(c2)CCCO4)n2c-3cc3cc(-c4cnc([C@@H]5CCCN5C(=O)[C@@H](NC(=O)OC)C5CCOCC5)[nH]4)ccc32)[nH]1)C(C)C	three
CCc1ccc([C@@H]2Oc3cc(-c4cnc([C@@H]5CCCN5C(=O)[C@@H](NC(=O)OC)C(C)C)[nH]4)cc(F)c3-c3cc4cc(-c5cnc([C@@H]6CCCN6C(=O)[C@@H](NC(=O)OC)[C@@H]6CCOC(C)(C)C6)[nH]5)ccc4n32)s1	three
COC(=O)N[C@H](C(=O)N1CCC[C@H]1c1ncc(-c2ccc3c(c2)cc2n3[C@H](c3ccc4c(c3)OCCC4)Oc3cc(-c4cnc([C@@H]5CCCN5C(=O)[C@@H](NC(=O)OC)C5CCOCC5)[nH]4)cc(F)c3-2)[nH]1)C(C)C	one
CCCc1ncc([C@@H]2Oc3cc(-c4cnc([C@@H]5CCCN5C(=O)[C@@H](NC(=O)OC)C(C)C)[nH]4)cc(F)c3-c3cc4cc(-c5cnc([C@@H]6CCCN6C(=O)[C@@H](NC(=O)OC)[C@@H]6CCOC(C)(C)C6)[nH]5)ccc4n32)s1	one
COC(=O)N[C@H](C(=O)N1CCC[C@H]1c1ncc(-c2cc(F)c3c(c2)O[C@@H](c2ccc(C(F)F)s2)n2c-3cc3cc(-c4cnc([C@@H]5CCCN5C(=O)[C@@H](NC(=O)OC)C5CCOCC5)[nH]4)ccc32)[nH]1)C(C)C	one
COC(=O)N[C@H](C(=O)N1CCC[C@H]1c1ncc(-c2cc(F)c3c(c2)O[C@@H](c2cc4ccccc4s2)n2c-3cc3cc(-c4cnc([C@@H]5CCCN5C(=O)[C@@H](NC(=O)OC)C5CCOCC5)[nH]4)ccc32)[nH]1)C(C)C	three
COC(=O)N[C@H](C(=O)N1CCC[C@H]1c1ncc(-c2cc(F)c3c(c2)O[C@@H](c2ccc(C4CC4)s2)n2c-3cc3cc(-c4cnc([C@@H]5CCCN5C(=O)[C@@H](NC(=O)OC)C5C[C@@H](C)O[C@H](C)C5)[nH]4)ccc32)[nH]1)C(C)C (stereo partly specified)	one
COC(=O)N[C@H](C(=O)N1CCC[C@H]1c1ncc(-c2cc(F)c3c(c2)O[C@@H](c2cnc(C(C)C)s2)n2c-3cc3cc(-c4cnc([C@@H]5CCCN5C(=O)[C@@H](NC(=O)OC)[C@@H]5CCOC(C)(C)C5)[nH]4)ccc32)[nH]1)C(C)C	three
CCCc1ccc([C@@H]2Oc3cc(-c4cnc([C@@H]5CCCN5C(=O)[C@@H](NC(=O)OC)C(C)C)[nH]4)cc(F)c3-c3cc4cc(-c5cnc([C@@H]6CCCN6C(=O)[C@@H](NC(=O)OC)C6CCOCC6)[nH]5)ccc4n32)s1	one
COC(=O)N[C@H](C(=O)N1CCC[C@H]1c1ncc(-c2cc(F)c3c(c2)O[C@@H](c2ccc(C(F)(F)F)s2)n2c-3cc3cc(-c4cnc([C@@H]5CCCN5C(=O)[C@@H](NC(=O)OC)C5CCOCC5)[nH]4)ccc32)[nH]1)C(C)C	two
COC(=O)N[C@H](C(=O)N1CCC[C@H]1c1ncc(-c2cc(F)c3c(c2)O[C@@H](c2ccc(C4CC4)s2)n2c-3cc3cc(-c4cnc([C@@H]5CCCN5C(=O)[C@@H](NC(=O)OC)[C@@H]5CCOC(C)(C)C5)[nH]4)ccc32)[nH]1)C(C)C	three
COC(=O)N[C@H](C(=O)N1CCC[C@H]1c1ncc(-c2cc(F)c3c(c2)O[C@@H](c2ccc(C4CC4)s2)n2c-3cc3cc(-c4cnc([C@@H]5CCCN5C(=O)[C@@H](NC(=O)OC)C5CCO[C@@H](C)C5)[nH]4)ccc32)[nH]1)C(C)C (stereo partly specified)	one
COC(=O)N[C@H](C(=O)N1CCC[C@H]1c1ncc(-c2cc(F)c3c(c2)O[C@@H](c2ccc(C4CC4)s2)n2c-3cc3cc(-c4cnc([C@@H]5CCCN5C(=O)[C@@H](NC(=O)OC)C5CCO[C@H](C)C5)[nH]4)ccc32)[nH]1)C(C)C (stereo partly specified)	one
COC(=O)N[C@H](C(=O)N1CCC[C@H]1c1ncc(-c2cc(F)c3c(c2)O[C@@H](c2cnc(C4CC4)s2)n2c-3cc3cc(-c4cnc([C@@H]5CCCN5C(=O)[C@@H](NC(=O)OC)[C@@H]5CCOC(C)(C)C5)[nH]4)ccc32)[nH]1)C(C)C	two
COC(=O)N[C@H](C(=O)N1CCC[C@H]1c1ncc(-c2cc(F)c3c(c2)O[C@@H](c2ccc(C4CC4)s2)n2c-3cc3cc(-c4cnc([C@@H]5CCCN5C(=O)[C@@H](NC(=O)OC)C5C[C@@H](C)O[C@@H](C)C5)[nH]4)ccc32)[nH]1)C(C)C (stereo partly specified)	two
CC[C@@H]1CC([C@H](NC(=O)OC)C(=O)N2CCC[C@H]2c2ncc(-c3ccc4c(c3)cc3n4[C@H](c4ccc(C5CC5)s4)Oc4cc(-c5cnc([C@@H]6CCCN6C(=O)[C@@H](NC(=O)OC)C(C)C)[nH]5)cc(F)c4-3)[nH]2)C[C@H](CC)O1 (stereo partly specified)	three
